B1: Osa-1-4 twister ribozyme (parent)
chain: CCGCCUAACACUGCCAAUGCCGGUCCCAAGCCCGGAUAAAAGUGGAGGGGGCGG

# Variants of: B1
# measurement_protocol: self-cleavage, relative activity (ratio to wild type); higher = more cleavage; co-transcriptional
# self-cleavage annotations
Please give the numeric answer without any surrounding text.

Illustrative cases are given below, each with its answer.
mutant_code	self-cleavage
G30C G48A	0.02
A29U G48C	0.03
G30C U37C	0.04
A28G G51C	0.06
A39U G51U	0.28
C20U U24A	0.44
A41C G34C	0.32
A17G C52G	0.9

Fill blank: measured self-cleavage of the variant C11U G22C is ____. 0.04

Fill blank: measured self-cleavage of the variant A46C U18A is ____. 0.06

Fill blank: measured self-cleavage of the variant G42C G53C is ____. 0.07

Fill blank: measured self-cleavage of the variant A29U G42U is ____. 0.03

Fill blank: measured self-cleavage of the variant G50A U12A is ____. 0.44

Fill blank: measured self-cleavage of the variant A46G G19C is ____. 0.02

Fill blank: measured self-cleavage of the variant C31U U18C is ____. 0.87
